Recorded values, source patent US9321752B2.

Target: Recombinant three-repeat microtubule-binding domain (3R-MBD) of tau protein (Homo sapiens, UniProt P10636)
Sequence (P10636 2-758 limits assumed): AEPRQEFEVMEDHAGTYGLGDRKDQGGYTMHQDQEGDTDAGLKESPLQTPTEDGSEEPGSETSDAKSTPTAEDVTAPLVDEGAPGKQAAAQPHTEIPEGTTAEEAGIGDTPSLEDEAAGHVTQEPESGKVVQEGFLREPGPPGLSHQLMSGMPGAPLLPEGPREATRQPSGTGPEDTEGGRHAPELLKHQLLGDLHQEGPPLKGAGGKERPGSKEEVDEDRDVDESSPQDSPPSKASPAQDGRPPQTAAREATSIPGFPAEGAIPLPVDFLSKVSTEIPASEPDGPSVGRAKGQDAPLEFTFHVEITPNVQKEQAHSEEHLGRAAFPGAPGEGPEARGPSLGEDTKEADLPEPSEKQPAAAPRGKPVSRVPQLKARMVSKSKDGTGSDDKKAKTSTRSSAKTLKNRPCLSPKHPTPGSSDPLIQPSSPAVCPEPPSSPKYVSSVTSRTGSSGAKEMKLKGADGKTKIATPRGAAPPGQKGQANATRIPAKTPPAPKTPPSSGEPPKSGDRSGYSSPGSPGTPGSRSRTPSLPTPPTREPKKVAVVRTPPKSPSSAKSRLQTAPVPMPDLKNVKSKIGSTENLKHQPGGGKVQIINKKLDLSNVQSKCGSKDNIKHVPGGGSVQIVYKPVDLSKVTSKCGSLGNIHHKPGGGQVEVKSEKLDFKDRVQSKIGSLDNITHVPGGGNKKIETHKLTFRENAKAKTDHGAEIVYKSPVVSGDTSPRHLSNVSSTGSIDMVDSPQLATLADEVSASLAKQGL
Experiment: Determination of tau aggregation inhibitory activity (thioflavin T fluorescence, heparin-induced)
Settings: 10 μM tau 3R-MBD, 10 μM heparin, 37° C. for 16 hours, thioflavin T
metric: IC50 (µM)

compound.smiles	output.unit	IC50
C(=C\c1cc(/C=C/c2ccc3cc[nH]c3c2)[nH]n1)/c1cccc(OCCN2CCOCC2)c1	µM	0.84
COc1cc(OCc2ccccn2)ccc1/C=C/c1cc(/C=C/c2cccc(C)n2)[nH]n1	µM	0.84
Cc1cc(OCc2ccccn2)ccc1/C=C/c1cc(/C=C/c2cccn2C)[nH]n1	µM	0.64
COc1cc(OCc2ccccn2)ccc1/C=C/c1cc(/C=C/c2cccn2C)[nH]n1	µM	0.66
COc1cc(OCc2ccccn2)ccc1/C=C/c1cc(/C=C/c2ccnn2C)[nH]n1	µM	0.83
COc1cc(OCc2ccccn2)ccc1/C=C/c1cc(/C=C/c2ccc(C)n2C)[nH]n1	µM	0.59
